Reference for the values: paper PMC10730845

Target: PKC mu (PKCm/PRKD1) (Homo sapiens)
Sequence (Q15139 whole entry): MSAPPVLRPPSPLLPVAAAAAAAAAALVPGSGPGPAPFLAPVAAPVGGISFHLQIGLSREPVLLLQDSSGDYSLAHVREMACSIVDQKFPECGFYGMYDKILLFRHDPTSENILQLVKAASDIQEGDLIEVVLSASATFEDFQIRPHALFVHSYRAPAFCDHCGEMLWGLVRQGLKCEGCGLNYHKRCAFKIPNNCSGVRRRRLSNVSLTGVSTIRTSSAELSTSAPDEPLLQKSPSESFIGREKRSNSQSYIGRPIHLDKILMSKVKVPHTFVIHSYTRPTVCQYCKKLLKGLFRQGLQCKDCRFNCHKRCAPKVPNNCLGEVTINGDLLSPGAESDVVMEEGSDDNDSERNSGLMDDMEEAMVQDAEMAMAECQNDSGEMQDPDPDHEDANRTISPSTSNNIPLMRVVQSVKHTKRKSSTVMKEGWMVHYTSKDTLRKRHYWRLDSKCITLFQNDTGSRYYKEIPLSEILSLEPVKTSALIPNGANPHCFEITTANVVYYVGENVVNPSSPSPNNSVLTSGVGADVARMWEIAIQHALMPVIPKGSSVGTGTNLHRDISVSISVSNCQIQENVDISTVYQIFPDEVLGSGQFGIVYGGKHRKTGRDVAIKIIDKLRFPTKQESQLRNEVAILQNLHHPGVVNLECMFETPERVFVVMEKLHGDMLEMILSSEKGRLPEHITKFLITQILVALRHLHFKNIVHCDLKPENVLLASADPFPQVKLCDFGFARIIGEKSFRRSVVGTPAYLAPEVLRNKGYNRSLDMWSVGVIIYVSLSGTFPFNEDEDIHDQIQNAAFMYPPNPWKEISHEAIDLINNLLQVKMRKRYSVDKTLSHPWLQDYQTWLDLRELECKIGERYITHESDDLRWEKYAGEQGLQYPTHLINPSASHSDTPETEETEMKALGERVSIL
Assay: In vitro kinase assay, PKC mu
Conditions: 10 μM ATP
Value type: pIC50
Note on pIC50: it is the negative log10 of concentration, concentration in mol/L.

Ask: Indicate the recorded pIC50 value for this compound: CC/C(=C(\c1ccc(O)cc1)c1ccc(OCCNC)cc1)c1ccccc1 [ENDX, Z-endoxifen]
Reply: 4.50

* * *

Target: PKC alpha (PKCa) (Homo sapiens)
pIC50: −log10 of the molar value.
Value type: pIC50

Ask: Identify pIC50 associated with the compound CC/C(=C(\c1ccc(O)cc1)c1ccc(OCCNC)cc1)c1ccccc1 [ENDX, Z-endoxifen]
Reply: < 4.30

* * *

Value type: pIC50
Reminder that pIC50 means the negative base-10 logarithm of the concentration expressed in mol/L.

Ask: Under UniProtKB P05129, report pIC50 for CC/C(=C(\c1ccc(O)cc1)c1ccc(OCCNC)cc1)c1ccccc1 [ENDX, Z-endoxifen]
Reply: 4.30

* * *

Value type: IC50 (µM)
Give your result in µM as a bare value.

Ask: Send back PKC thetha (PKCq) (Homo sapiens, UniProt Q04759) IC50 of CC/C(=C(\c1ccc(O)cc1)c1ccc(OCCNC)cc1)c1ccccc1 [ENDX, Z-endoxifen] only.
Reply: 41.8

* * *

pIC50: −log10 of the molar value.
Value type: pIC50

Ask: Report value: pIC50, system: PKC eta (PKCh) (Homo sapiens, UniProt P24723), compound: CC/C(=C(\c1ccc(O)cc1)c1ccc(OCCNC)cc1)c1ccccc1 [ENDX, Z-endoxifen]
Sequence (P24723 whole entry): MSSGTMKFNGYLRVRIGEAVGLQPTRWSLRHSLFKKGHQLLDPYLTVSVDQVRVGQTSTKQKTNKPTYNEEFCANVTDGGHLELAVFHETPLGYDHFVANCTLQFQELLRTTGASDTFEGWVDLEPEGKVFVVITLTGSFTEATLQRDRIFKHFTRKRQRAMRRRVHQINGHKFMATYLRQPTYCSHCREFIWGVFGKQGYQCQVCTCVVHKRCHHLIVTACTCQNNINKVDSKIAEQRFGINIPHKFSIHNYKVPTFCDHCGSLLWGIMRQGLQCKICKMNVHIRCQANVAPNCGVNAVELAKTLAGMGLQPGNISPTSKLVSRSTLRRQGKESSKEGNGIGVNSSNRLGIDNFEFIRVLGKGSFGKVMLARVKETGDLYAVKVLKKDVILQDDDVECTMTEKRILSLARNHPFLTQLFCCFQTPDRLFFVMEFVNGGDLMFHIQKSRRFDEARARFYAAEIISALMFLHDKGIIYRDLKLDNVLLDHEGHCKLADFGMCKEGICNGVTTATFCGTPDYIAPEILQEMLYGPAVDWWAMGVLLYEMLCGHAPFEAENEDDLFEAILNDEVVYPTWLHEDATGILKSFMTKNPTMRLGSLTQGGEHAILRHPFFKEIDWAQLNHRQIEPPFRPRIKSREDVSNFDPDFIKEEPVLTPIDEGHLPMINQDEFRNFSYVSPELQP
Reply: < 4.30

* * *

Molecular target: PKC beta 2 (PKCb2) (Homo sapiens, UniProt P05771)
Sequence (P05771 1-673 isoform P05771-2): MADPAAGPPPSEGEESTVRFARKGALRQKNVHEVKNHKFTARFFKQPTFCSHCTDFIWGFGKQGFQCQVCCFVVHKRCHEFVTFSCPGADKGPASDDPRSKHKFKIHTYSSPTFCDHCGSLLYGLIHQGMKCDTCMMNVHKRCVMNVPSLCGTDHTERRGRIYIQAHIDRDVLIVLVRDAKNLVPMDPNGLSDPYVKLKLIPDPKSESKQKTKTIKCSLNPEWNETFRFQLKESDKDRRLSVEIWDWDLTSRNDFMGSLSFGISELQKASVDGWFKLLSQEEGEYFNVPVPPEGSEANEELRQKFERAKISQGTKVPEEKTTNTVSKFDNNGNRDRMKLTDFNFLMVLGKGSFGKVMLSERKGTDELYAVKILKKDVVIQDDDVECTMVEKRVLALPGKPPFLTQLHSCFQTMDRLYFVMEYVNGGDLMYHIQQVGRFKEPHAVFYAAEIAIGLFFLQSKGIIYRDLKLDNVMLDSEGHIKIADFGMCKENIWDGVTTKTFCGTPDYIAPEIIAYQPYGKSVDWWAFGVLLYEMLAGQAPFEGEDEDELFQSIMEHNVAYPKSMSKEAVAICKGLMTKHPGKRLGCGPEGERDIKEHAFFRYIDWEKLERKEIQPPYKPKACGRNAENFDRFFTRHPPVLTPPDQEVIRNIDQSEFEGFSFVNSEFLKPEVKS
Value type: pIC50
Note: pIC50 values are expressed as the negative base-10 logarithm of concentration in M.

Ask: Hello, please tell me recorded pIC50 for this one: CC/C(=C(\c1ccc(O)cc1)c1ccc(OCCNC)cc1)c1ccccc1 [ENDX, Z-endoxifen]
Reply: 4.36
